Below, each entry is listed with its recorded pIC50.
TARGET SYSTEM: full length human Dynamin I (Homo sapiens)
Construct: full length human Dynamin I expressed in Sf21 insect cells; made in house; host or cells: Sf21 insect cells
Sequence (Q05193 1-864): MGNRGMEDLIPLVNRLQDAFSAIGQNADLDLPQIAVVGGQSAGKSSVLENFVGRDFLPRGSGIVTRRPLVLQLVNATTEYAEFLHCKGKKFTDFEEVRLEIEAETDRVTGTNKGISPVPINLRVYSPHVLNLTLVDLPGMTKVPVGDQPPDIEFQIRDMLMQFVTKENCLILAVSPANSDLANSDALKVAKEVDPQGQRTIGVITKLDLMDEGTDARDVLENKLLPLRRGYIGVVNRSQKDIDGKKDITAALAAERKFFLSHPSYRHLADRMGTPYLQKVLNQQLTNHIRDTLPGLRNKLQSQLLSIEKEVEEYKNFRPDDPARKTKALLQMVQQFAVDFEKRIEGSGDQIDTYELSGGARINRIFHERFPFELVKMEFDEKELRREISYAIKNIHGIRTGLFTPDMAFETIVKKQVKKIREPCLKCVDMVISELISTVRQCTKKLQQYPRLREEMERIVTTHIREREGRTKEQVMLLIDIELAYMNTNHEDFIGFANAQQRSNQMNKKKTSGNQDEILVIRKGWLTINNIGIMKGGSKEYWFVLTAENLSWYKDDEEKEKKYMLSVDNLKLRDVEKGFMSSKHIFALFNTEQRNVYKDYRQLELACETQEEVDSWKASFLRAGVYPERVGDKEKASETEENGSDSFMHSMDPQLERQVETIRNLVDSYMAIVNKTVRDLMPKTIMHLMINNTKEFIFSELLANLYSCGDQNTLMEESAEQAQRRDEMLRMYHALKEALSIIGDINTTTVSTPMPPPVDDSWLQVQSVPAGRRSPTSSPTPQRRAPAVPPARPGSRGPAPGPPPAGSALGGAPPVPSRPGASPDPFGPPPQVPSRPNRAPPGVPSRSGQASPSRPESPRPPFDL
ASSAY PROCEDURE: Dynamin GTPase activity, Malachite Green phosphate detection assay
Type: biochemical
TEST SETTINGS: Table 1, library 1; n = 1 unless noted (19: n = 2); '–' = not active at 150 μM; read-out: Dyn 1 IC50
pIC50: −log10 of the molar value.

- COMPOUND: "O=C1N=C(NS(=O)(=O)c2cccc3ccccc23)S/C1=C\\c1ccc([N+](=O)[O-])cc1 [compound 13]"
  pIC50: "~4.25"
- COMPOUND: "CCCc1ccc(/C=C2\\SC(NS(=O)(=O)c3cccc4ccccc34)=NC2=O)cc1 [compound 22]"
  pIC50: "~4.04"
- COMPOUND: "O=C1N=C(NS(=O)(=O)c2cccc3ccccc23)S/C1=C\\c1cccc(C(=O)O)c1 [compound 10]"
  pIC50: "< 3.82"

Which pIC50 is listed for O=C1N=C(NS(=O)(=O)c2cccc3ccccc23)S/C1=C\c1cccc(O)c1 [compound 7] ?
< 3.82

Try O=C1N=C(NS(=O)(=O)c2cccc3ccccc23)SC1=Cc1ccc(-c2ccccc2)cc1 [compound 18] next.
4.07

Try O=C1N=C(NS(=O)(=O)c2cccc3ccccc23)S/C1=C\c1ccc(O)cc1 [compound 6] next.
< 3.82

Try O=C1N=C(NS(=O)(=O)c2cccc3ccccc23)S/C1=C\c1ccc(C(=O)O)cc1 [compound 9] next.
< 3.82

Try N#Cc1ccc(/C=C2\SC(NS(=O)(=O)c3cccc4ccccc34)=NC2=O)cc1 [compound 11] next.
< 3.82

Try CC(=O)Nc1ccc(/C=C2\SC(NS(=O)(=O)c3cccc4ccccc34)=NC2=O)cc1 [compound 19] next.
4.03
